# Assay type: cell-based, human
# condition: human, Cell viability (%)
Bridge positions count the residues as written; N and C are the ends. Square brackets hold non-standard residues; d marks the D form. Peptide text beside a SMILES is read from it.
experimental.readout: viability at 24 h, 3.12 µM (%)

- molecule: "CC[C@H](C)[C@H](NC(=O)[C@H](CCCNC(=N)N)NC(=O)[C@H]1CCC(=O)NCCCC[C@H](NC(=O)[C@H](Cc2ccccc2)NC(=O)[C@H](Cc2c[nH]c3ccccc23)NC(=O)[C@@H]2CCCN2C(=O)[C@@H](NC(=O)[C@@H](N)Cc2ccccc2)C(C)C)C(=O)N[C@@H](CCCNC(=N)N)C(=O)N[C@@H](Cc2ccccc2)C(=O)N[C@H](CC(C)C)C(=O)N1)C(=O)N[C@@H](CC(C)C)C(N)=O [Peptide 9, FVPWF[KRFle]RIL] (H-FVPWFKRF[dL][dE]RIL-NH2; lactam 6-10)"
  meas.value: 115

---

Below, each of the molecules is paired with its reported viability at 2 h, 12.5 µM value.
# Format: cell-based, human
# condition: human, Cell viability (%)
Bridge positions count the residues as written; N and C are the ends. Square brackets hold non-standard residues; d marks the D form. Peptide text beside a SMILES is read from it. Phe(4-guanidino) = N=C(N)Nc1ccc(C[C@H](N)C(=O)O)cc1
experimental.readout: viability at 2 h, 12.5 µM

- molecule: "CC[C@H](C)[C@H](NC(=O)[C@H](CCCNC(=N)N)NC(=O)[C@@H]1CCCNC(=N)NCCC[C@H](NC(=O)[C@H](Cc2ccccc2)NC(=O)[C@H](Cc2c[nH]c3ccccc23)NC(=O)[C@@H]2CCCN2C(=O)[C@@H](NC(=O)[C@@H](N)Cc2ccccc2)C(C)C)C(=O)N[C@@H](CCCCN)C(=O)N[C@@H](Cc2ccccc2)C(=O)N[C@H](CC(C)C)C(=O)N1)C(=O)N[C@@H](CC(C)C)C(N)=O [Peptide 13, FVPWF{OrnKFlOrn}RIL]"
  meas.value: "76%"
- molecule: "CC[C@H](C)[C@H](NC(=O)[C@H](CCCNC(=N)N)NC(=O)[C@H]1CCC(=O)NCCCC[C@H](NC(=O)[C@H](Cc2ccc(NC(=N)N)cc2)NC(=O)[C@H](Cc2c[nH]c3ccccc23)NC(=O)[C@@H]2CCCN2C(=O)[C@@H](NC(=O)[C@@H](N)Cc2ccccc2)C(C)C)C(=O)N[C@@H](CCCCN)C(=O)N[C@@H](Cc2ccccc2)C(=O)N[C@H](CC(C)C)C(=O)N1)C(=O)N[C@@H](CC(C)C)C(N)=O [Peptide 8, FVPW(p-guanidino)F[KKFle]RIL] (H-FVPW[Phe(4-guanidino)]KKF[dL][dE]RIL-NH2; lactam 6-10)"
  meas.value: "115%"

---

# Assay type: cell-based, human
# condition: human, Cell viability (%)

- compound: "CC[C@H](C)[C@H](NC(=O)[C@H](CCCNC(=N)N)NC(=O)[C@@H]1CCCCNC(=N)NCCCC[C@H](NC(=O)[C@H](Cc2ccccc2)NC(=O)[C@H](Cc2c[nH]c3ccccc23)NC(=O)[C@@H]2CCCN2C(=O)[C@@H](NC(=O)[C@@H](N)Cc2ccccc2)C(C)C)C(=O)N[C@@H](CCCCN)C(=O)N[C@@H](Cc2ccccc2)C(=O)N[C@H](CC(C)C)C(=O)N1)C(=O)N[C@@H](CC(C)C)C(N)=O [Peptide 11, FVPWF{KKFlK}RIL]"
  unit.tag: "%"
  viability at 2 h, 50 µM: 35
